Assign pIC50 to each entry below.
- experimental_protocol: Inhibition of ADP-induced human platelet aggregation
Please note pIC50 is a logarithmic value: minus log10 of concentration in mol/L. Answer with that number alone.

Q: Need pIC50, item `CN(C(=O)[C@H](CC(=O)O)NC(=O)CCCOc1ccc(C(=N)N)cc1)[C@@H](Cc1ccc(O)cc1)C(=O)O`
A: 6.92

Q: Need pIC50, item `CC(C)[C@H](NC(=O)[C@H](CC(=O)O)NC(=O)CCCOc1ccc(C(=N)N)cc1)C(=O)O`
A: 7.00

Q: Need pIC50, item `CC(C)C[C@H](NC(=O)[C@H](CC(=O)O)NC(=O)CCCOc1ccc(C(=N)N)cc1)C(=O)O`
A: 6.89

Q: Need pIC50, item `COc1ccc(C[C@H](NC(=O)[C@H](CC(=O)O)NC(=O)CCCCOc2ccc(C(=N)N)cc2)C(=O)O)cc1`
A: 5.35

Q: Need pIC50, item `CC(C)(C)[C@H](NC(=O)[C@H](CC(=O)O)NC(=O)CCCOc1ccc(C(=N)N)cc1)C(=O)O`
A: 6.64

Every entry's value here was drawn from BindingDB's records for doi:10.1016/S0960-894X(96)00246-6.
